- test.system: Voltage-gated potassium channel subunit beta-2 (Rattus norvegicus) (UniProt P62483)
- Sequence (P62483 whole entry, looked up): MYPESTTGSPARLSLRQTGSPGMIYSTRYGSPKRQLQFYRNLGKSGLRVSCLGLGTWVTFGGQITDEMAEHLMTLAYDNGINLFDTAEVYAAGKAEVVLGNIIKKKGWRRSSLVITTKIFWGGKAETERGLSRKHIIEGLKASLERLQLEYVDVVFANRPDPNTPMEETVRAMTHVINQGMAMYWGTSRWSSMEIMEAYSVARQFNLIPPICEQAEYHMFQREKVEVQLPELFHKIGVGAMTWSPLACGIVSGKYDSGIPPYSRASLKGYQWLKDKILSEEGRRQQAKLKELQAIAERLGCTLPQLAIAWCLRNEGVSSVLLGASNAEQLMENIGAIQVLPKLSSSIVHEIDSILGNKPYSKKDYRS
- run.description: KvBeta enzyme negative modulators, primary screen, biochemical, NADPH fluorescence (AID 622);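 note: slope of raw intensity against log time taken from 70 to 1610 s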
- conditions: recombinant KvBeta, 4-cyanobenzaldehyde reduction, at 10 µM, stronger effect = higher value
measurement.type: fluorescence slope
Just the number, please.

According to the records, this compound COc1cc(C2C(C(C)=O)=C(O)C(=O)N2c2ccc(Br)cn2)ccc1O (centres undefined) displays fluorescence slope of -0.446

Lab note: measured fluorescence slope of Cc1ccc(S(=O)(=O)N(CC(O)CN2CCOCC2)c2cc(Cl)ccc2Cl)cc1 (centres undefined) was -0.403

# fluorescence slope of `O=C(COc1ccc(F)cc1)OCCN1CCOCC1` = -0.449

Recorded result, CCOc1cccc(C(=O)N(Cc2ccc(F)cc2)C2CCS(=O)(=O)C2)c1 (centres undefined) , fluorescence slope: -0.415

Lab note: measured fluorescence slope of `Cc1c(C(=O)Nc2ccncc2)oc2c1C(=O)CC(C)(C)C2` was -0.408

fluorescence slope reported for this compound `COc1cc(S(=O)(=O)n2nnc3ccccc32)c(OC)cc1Cl` : -0.382
